Target: ABL1 (Homo sapiens)
Construct: purchased Carna Biosciences
Sequence (P00519 whole entry): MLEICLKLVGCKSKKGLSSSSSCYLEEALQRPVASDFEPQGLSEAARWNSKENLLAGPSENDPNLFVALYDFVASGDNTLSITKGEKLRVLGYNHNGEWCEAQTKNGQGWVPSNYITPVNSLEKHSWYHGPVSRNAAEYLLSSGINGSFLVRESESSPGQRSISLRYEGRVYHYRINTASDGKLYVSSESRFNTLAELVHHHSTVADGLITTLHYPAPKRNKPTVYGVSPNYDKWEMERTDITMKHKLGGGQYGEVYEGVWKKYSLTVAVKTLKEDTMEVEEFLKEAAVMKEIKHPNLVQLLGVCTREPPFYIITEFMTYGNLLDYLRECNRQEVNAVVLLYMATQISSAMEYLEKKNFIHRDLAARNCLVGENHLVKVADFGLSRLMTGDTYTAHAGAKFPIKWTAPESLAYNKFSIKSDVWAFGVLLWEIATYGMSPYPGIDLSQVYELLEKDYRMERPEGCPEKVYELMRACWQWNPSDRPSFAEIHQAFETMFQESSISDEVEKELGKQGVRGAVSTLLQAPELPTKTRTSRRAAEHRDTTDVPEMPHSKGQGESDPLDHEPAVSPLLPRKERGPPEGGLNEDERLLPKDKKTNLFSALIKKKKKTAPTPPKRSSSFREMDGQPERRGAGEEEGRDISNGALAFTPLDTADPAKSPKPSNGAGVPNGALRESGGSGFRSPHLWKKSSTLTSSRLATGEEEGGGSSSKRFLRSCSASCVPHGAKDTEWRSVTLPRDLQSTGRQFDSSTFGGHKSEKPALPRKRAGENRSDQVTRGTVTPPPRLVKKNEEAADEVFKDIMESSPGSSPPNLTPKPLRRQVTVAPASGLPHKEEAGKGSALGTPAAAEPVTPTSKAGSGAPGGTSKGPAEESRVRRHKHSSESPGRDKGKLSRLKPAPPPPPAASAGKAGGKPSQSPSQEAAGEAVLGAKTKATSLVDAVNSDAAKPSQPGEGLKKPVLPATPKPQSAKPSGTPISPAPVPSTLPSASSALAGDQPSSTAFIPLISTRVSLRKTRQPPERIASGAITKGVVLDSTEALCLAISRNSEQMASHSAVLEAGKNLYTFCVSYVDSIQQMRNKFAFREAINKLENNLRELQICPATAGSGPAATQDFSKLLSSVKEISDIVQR
Experiment Description: Luminescence-based ABL kinase assay (ADP-Glo, 300 μM ATP)
Type: biochemical
Observed Property: IC50 (nM)
Only the number, expressed in nM, is required.

Answered cases to consult:
Compound: COc1c(-c2c[nH]c3nc(NC(=O)[C@@H]4C[C@@H]4F)ccc23)ccc2ncnn12
Unit Text: nM
IC50: 64.8
//
Compound: Cc1ccccc1-c1c[nH]c2nc(NC(=O)C3CC3)ccc12
Unit Text: nM
IC50: 113
//
Compound: COc1cc2[nH]ncc2cc1-c1c[nH]c2nc(NC(=O)[C@@H]3C[C@@H]3F)ccc12
Unit Text: nM
IC50: 3.9
//
Compound: COc1ccccc1-c1c[nH]c2nc(NC(=O)[C@H]3C[C@@H]3CO)ccc12 (relative stereo)
Unit Text: nM
IC50: 78.6
//
Compound: CCOc1cccc(F)c1-c1n[nH]c2nc(NC(=O)[C@@H]3C[C@@H]3F)ccc12
Unit Text: nM
IC50: 157
//
Compound: COc1ccnc(OC)c1-c1c[nH]c2nc(NC(=O)[C@@H]3C[C@@H]3F)ccc12
Unit Text: nM
IC50: 15.1

Can you look up the measured IC50 of O=C(Nc1ccc2c(-c3ccc4c(c3)NCC4)c[nH]c2n1)C1CC1 for me? 776

Can you look up the measured IC50 of Cn1cc(-c2c[nH]c3nc(NC(=O)C4CC4)ccc23)ccc1=O for me? 1090

* * *

Target: ABL1 (Homo sapiens)
Construct: purchased Carna Biosciences
Experiment Description: Luminescence-based ABL kinase assay (ADP-Glo, 300 μM ATP)
Type: biochemical
Observed Property: log10(IC50) (log10 of the value in nM)
# values: log10(IC50), units nM

Molecule: COc1cccc(OC)c1-c1c[nH]c2nc(NC(=O)C3CC3CN3CCNCC3)ccc12 (single isomer, unassigned) [Example S150, Enantiomer 2]
Measured Value: 1.48

Molecule: COc1ccccc1-c1c[nH]c2nc(NC(=O)[C@H]3C[C@H]3C#N)ccc12 (relative stereo)
Measured Value: 1.89

Molecule: COc1cc2cc[nH]c2cc1-c1c[nH]c2nc(NC(=O)C3CC3)ccc12
Measured Value: 1.74

Can you look up the measured log10(IC50) of COc1nc2nccn2cc1-c1c[nH]c2nc(NC(=O)[C@@H]3C[C@@H]3F)ccc12 for me? 1.40

Can you look up the measured log10(IC50) of Nc1cccc(-c2c[nH]c3nc(NC(=O)C4CC4)ccc23)n1 for me? 2.84

Can you look up the measured log10(IC50) of COc1cccc(OC)c1-c1c[nH]c2nc(NC(=O)NCCCN(C)C)ccc12 for me? 1.63

Can you look up the measured log10(IC50) of CCNC(=O)Nc1ccc2c(-c3ccccc3OC)c[nH]c2n1 for me? 2.00

Can you look up the measured log10(IC50) of COc1cc2ncsc2cc1-c1c[nH]c2nc(NC(=O)[C@@H]3C[C@@H]3F)ccc12 for me? 0.78

Can you look up the measured log10(IC50) of O=C(Nc1ccc2c(-c3ccccc3OC3CC3)n[nH]c2n1)[C@@H]1C[C@@H]1F for me? 1.03

Can you look up the measured log10(IC50) of CNc1cc(C)c(-c2c[nH]c3nc(NC(=O)C4CC4)ccc23)cn1 for me? 2.78

Can you look up the measured log10(IC50) of COc1c(-c2c[nH]c3nc(NC(=O)[C@@H]4C[C@@H]4F)ccc23)ccn2ncnc12 for me? 2.09

Can you look up the measured log10(IC50) of COc1cc2ncsc2c(F)c1-c1c[nH]c2nc(NC(=O)[C@@H]3C[C@@H]3F)ccc12 for me? 0.74

Can you look up the measured log10(IC50) of COc1ccccc1-c1c[nH]c2nc(NC(=O)NCC3CC3)ccc12 for me? 1.87

Can you look up the measured log10(IC50) of COc1cccc(F)c1-c1c[nH]c2nc(NC(=O)[C@H]3C[C@H]3F)ccc12 for me? 1.90

Can you look up the measured log10(IC50) of COc1c(-c2c[nH]c3nc(NC(=O)[C@@H]4C[C@@H]4F)ccc23)ccc2nccn12 for me? 3.39

Can you look up the measured log10(IC50) of COc1ccc(F)c(OC)c1-c1c[nH]c2nc(NC(=O)NCCN3CCN(C)CC3)ccc12 for me? 1.71
